Reference source for all entries: ChEMBL document CHEMBL1155520

# Test system: Streptococcus pneumoniae
# procedure_summary: Antimicrobial activity against macrolide-resistant Streptococcus pneumoniae Ci137
# Type: functional
Assignment: determine reported MIC for the given molecules.
Dear colleague, please return just the value in µg/mL, with no unit written.

Recorded result, `CC[C@H]1OC(=O)[C@H](C)[C@@H](O[C@H]2C[C@@](C)(OC)[C@@H](OC(=O)CCN3CCN(C(=O)c4ccco4)CC3)[C@H](C)O2)[C@H](C)[C@@H](O[C@@H]2O[C@H](C)C[C@H](N(C)C)[C@H]2O)[C@](C)(O)C[C@@H](C)NC(=O)[C@H](C)[C@@H](O)[C@]1(C)O` , MIC: 2

Recorded result, `CC[C@H]1OC(=O)[C@H](C)[C@@H](O[C@H]2C[C@@](C)(OC)[C@@H](OC(=O)CCNCC(=O)Nc3ccc([N+](=O)[O-])cc3)[C@H](C)O2)[C@H](C)[C@@H](O[C@@H]2O[C@H](C)C[C@H](N(C)C)[C@H]2O)[C@](C)(OC)C[C@@H](C)NC(=O)[C@H](C)[C@@H](O)[C@]1(C)O` , MIC: 2
